Please go through the items and note down their log10(IC50).
# targetSystem: Polyunsaturated fatty acid 5-lipoxygenase (Rattus norvegicus)
# assayOverview: Ability to inhibit 5-lipoxygenase by using a crude preparation of the cytosolic enzyme from the rat basophilic leukemia (RBL-1) cell line
Form field - Quantity: IC50; Unit: nM; Scale: log10

input: Kindly state the measured log10(IC50) obtained for COc1ccc(Cc2ccc3ccccc3c2O)cc1 with Polyunsaturated fatty acid 5-lipoxygenase (Rattus norvegicus).
output: 1.88

input: Record Oc1c(/C=C\c2ccccc2)ccc2ccccc12 : what is its log10(IC50) with Polyunsaturated fatty acid 5-lipoxygenase (Rattus norvegicus)?
output: 2.20

input: Could you share what log10(IC50) was measured for Oc1c(Cc2cccs2)ccc2ccccc12 , tested on Polyunsaturated fatty acid 5-lipoxygenase (Rattus norvegicus)?
output: 1.78

input: Request - read-out log10(IC50) | tested on Polyunsaturated fatty acid 5-lipoxygenase (Rattus norvegicus) | compound CCOC(=O)c1cc(Cc2ccccc2)c(O)c2ccccc12
output: 2.20

input: What measured log10(IC50) is associated with Oc1c(Cc2ccccc2)ccc2ccccc12 on Polyunsaturated fatty acid 5-lipoxygenase (Rattus norvegicus)?
output: 1.28

input: What is its log10(IC50) for Polyunsaturated fatty acid 5-lipoxygenase (Rattus norvegicus)? Entry: COc1c(Cc2ccccc2)ccc2ccccc12
output: 4.74

* * *

# targetSystem: Polyunsaturated fatty acid 5-lipoxygenase (Rattus norvegicus)
# assayOverview: Ability to inhibit 5-lipoxygenase by using a crude preparation of the cytosolic enzyme from the rat basophilic leukemia (RBL-1) cell line
recordedMetric: pIC50
Conceptually, pIC50 converts a concentration in mol/L into minus its log10.

input: pIC50 lookup needed for Oc1cccc2ccccc12 , thanks.
output: 5.44

input: If you can, please state the reported pIC50 value of CCOc1ccc(Cc2ccc3ccccc3c2O)cc1 .
output: 7.21

input: Form field: reported pIC50 of O=[N+]([O-])c1ccc(Cc2ccc3ccccc3c2O)cc1
output: 7.32

input: I am curious: what pIC50 value has been reported for Cc1ccc2ccccc2c1O ?
output: 6.89

input: Consider the compound Cc1ccccc1Cc1ccc2ccccc2c1O and give its measured pIC50.
output: 6.92

input: Entry under review: CS(=O)(=O)c1ccc(Cc2ccc3ccccc3c2O)cc1 . Reported pIC50?
output: 6.62

input: Endpoint output: pIC50 of O=C(O)c1cc(Cc2ccccc2)c(O)c2ccccc12 . Value?
output: 5.24

input: Any idea what pIC50 was measured for Oc1c(Cc2ccccc2)cc(-c2ccccc2)c2ccccc12 ?
output: 7.25

input: Returns the measured pIC50 for the input compound. Input: Oc1c(Cc2ccccc2)cc(Br)c2ccccc12
output: 7.11

input: Need pIC50 of Oc1ccc2ccccc2c1Cc1ccccc1 , thanks.
output: 5.41

input: Entry under review: Oc1c(Cc2cccnc2)ccc2ccccc12 . Reported pIC50?
output: 6.64

input: // pIC50 lookup, key: O=[N+]([O-])c1cc(Cc2ccccc2)c(O)c2ccccc12
output: 4.32

input: I am curious: what pIC50 value has been reported for CCOC(=O)/C=C/c1ccc2ccccc2c1O ?
output: 7.35

* * *

# targetSystem: Cyclooxygenase (Bos taurus, UniProt O62664+O62698)
# assayOverview: In vitro inhibition of Prostaglandin G/H synthase in BSV cell line.
# Type: cell-based
Task for the reader: assign each of the following compounds its reported IC50.
Write your answer as a measured quantity: the number, then the unit.

input: Name the reported IC50 value associated with the compound Oc1c(Cc2ccccc2)cccc1Cc1ccccc1
output: 52 µM

input: Entry Oc1cccc2ccccc12 : reported IC50 = ?
output: 2 µM

input: So what does the record say about IC50 for Oc1c(Cc2ccccc2)ccc2ccccc12 ?
output: 3.4 µM

input: Looking for the measured IC50 of CC(C)(C)c1ccc2ccccc2c1O , can you help?
output: 37 µM

input: Which IC50 value belongs to CC(c1ccccc1)c1ccc2ccccc2c1O (configuration not stated) ?
output: 8.7 µM

input: Find the recorded IC50 belonging to CC(=O)Oc1c(Cc2ccccc2)ccc2ccccc12 and report it.
output: 240 µM

input: IC50 lookup needed for CCOC(=O)CCc1ccc2ccccc2c1O , thanks.
output: 13 µM

* * *

Can you tell me log10 of IC50 for the items I'm about to list?
# targetSystem: Cyclooxygenase (Bos taurus, UniProt O62664+O62698)
# assayOverview: In vitro inhibition of Prostaglandin G/H synthase in BSV cell line.
# Format: cell-based
# log10 transformed; quantity=IC50; unit=µM

input: # lookup: log10 of IC50 of Oc1c(/C=C\c2ccccc2)ccc2ccccc12
output: 1.11

input: Look up log10 of IC50 for this compound: CC(Cc1ccc(O)c(O)c1)C(C)Cc1ccc(O)c(O)c1 (stereo not drawn) [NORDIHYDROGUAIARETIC ACID]
output: 1.15

input: Could you tell me which log10 of IC50 is on file for OCc1ccccc1/C=C/Cc1cc2c(cc1O)CCO2 ?
output: 1.76

input: Item O=C(O)CCCCc1ccc2ccccc2c1O has what recorded log10 of IC50?
output: 2.86

input: # input compound: Oc1cc(Cc2ccccc2)cc2ccccc12 ; wanted: its log10 of IC50
output: 0.43

input: Any idea what log10 of IC50 was measured for Cl.Nc1c(Cc2ccccc2)ccc2ccccc12 ?
output: 1.26

input: Returns the measured log10 of IC50 for the input compound. Input: Oc1ccc2ccccc2c1Cc1ccccc1
output: 1.20

input: Endpoint output: log10 of IC50 of C=CCc1ccc2ccccc2c1O . Value?
output: 1.26

input: What does the data say about its log10 of IC50? Entry: CCOC(=O)/C=C/c1ccc2ccccc2c1O
output: 1.04

input: Give the measured log10 of IC50 of Oc1ccc(Cc2ccccc2)c2ccccc12 .
output: 0.77

input: Bench note: what log10 of IC50 did CCOC(=O)CCCCc1ccc2ccccc2c1O show?
output: 1.26

input: // query log10 of IC50 value for entry Cc1ccc2ccccc2c1O
output: 0.48

input: Could you tell me which log10 of IC50 is on file for Oc1cc2ccccc2cc1Cc1ccccc1 ?
output: 1.54

* * *

# targetSystem: Polyunsaturated fatty acid 5-lipoxygenase (Rattus norvegicus)
# Sequence (whole entry): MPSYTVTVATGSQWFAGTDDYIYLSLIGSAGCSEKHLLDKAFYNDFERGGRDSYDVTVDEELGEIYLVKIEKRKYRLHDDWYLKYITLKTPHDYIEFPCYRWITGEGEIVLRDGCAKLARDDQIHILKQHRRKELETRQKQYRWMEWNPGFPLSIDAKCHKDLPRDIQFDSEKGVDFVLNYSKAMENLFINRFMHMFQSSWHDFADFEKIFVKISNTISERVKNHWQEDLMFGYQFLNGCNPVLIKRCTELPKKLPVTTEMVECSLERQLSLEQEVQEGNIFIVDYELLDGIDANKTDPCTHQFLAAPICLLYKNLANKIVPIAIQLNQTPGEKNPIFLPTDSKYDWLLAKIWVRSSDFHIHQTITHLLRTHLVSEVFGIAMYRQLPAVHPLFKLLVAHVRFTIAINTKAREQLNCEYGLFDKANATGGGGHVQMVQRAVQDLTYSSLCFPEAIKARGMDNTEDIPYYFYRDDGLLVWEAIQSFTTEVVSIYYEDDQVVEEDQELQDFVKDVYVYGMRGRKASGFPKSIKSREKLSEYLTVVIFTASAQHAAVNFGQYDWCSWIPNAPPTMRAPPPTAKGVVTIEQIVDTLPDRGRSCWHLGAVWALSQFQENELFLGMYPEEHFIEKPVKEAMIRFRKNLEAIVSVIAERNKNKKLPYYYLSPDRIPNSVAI
# assayOverview: Ability to inhibit 5-lipoxygenase by using a crude preparation of the cytosolic enzyme from the rat basophilic leukemia (RBL-1) cell line at a concentration of 25 uM
# Type: cell-based
Give inhibition for every item shown.
# output: number + unit

input: What value of inhibition on Polyunsaturated fatty acid 5-lipoxygenase (Rattus norvegicus) does CC(=O)Nc1c(Cc2ccccc2)ccc2ccccc12 have?
output: 13%

input: Give inhibition (Polyunsaturated fatty acid 5-lipoxygenase (Rattus norvegicus)) of the following compound: O=C(O)c1c(Cc2ccccc2)ccc2ccccc12
output: 2%

input: What is its inhibition for Polyunsaturated fatty acid 5-lipoxygenase (Rattus norvegicus)? Entry: CCOC(=O)CCCC(=O)c1ccc2ccccc2c1O
output: 23%

input: What inhibition appears in the records for this compound with Polyunsaturated fatty acid 5-lipoxygenase (Rattus norvegicus)? COc1ccc2c(c1)c(CC(=O)O)c(C)n2C(=O)c1ccc(Cl)cc1 [INDOMETHACIN]
output: 47%

* * *

# targetSystem: Polyunsaturated fatty acid 5-lipoxygenase (Rattus norvegicus)
# assayOverview: Ability to inhibit 5-lipoxygenase by using a crude preparation of the cytosolic enzyme from the rat basophilic leukemia (RBL-1) cell line
recordedMetric: IC50 (nM)
# unit: nM | format: bare number

input: Value lookup for IC50; key = COc1c(OC)c(OC(C)=O)c2cc(Cl)ccc2c1OC(C)=O
output: 700

input: I have this compound here, Cc1ccc(C)c2c(O)c(Cc3ccccc3)ccc12 , and I need its recorded IC50.
output: 120

input: Name the recorded IC50 for CCOc1ccccc1Cc1ccc2ccccc2c1O .
output: 570

input: Requested field: IC50. Item: Cc1cc(Cc2ccccc2)c(O)c2ccccc12
output: 20

input: So what does the record say about IC50 for Oc1c(Cc2cccc(Br)c2)ccc2ccccc12 ?
output: 88

input: // returns reported IC50 for input COc1cc2ccc(Cc3ccccc3)c(O)c2cc1OC
output: 1700

input: Name the reported IC50 value associated with the compound Oc1cc(Cc2ccccc2)cc2ccccc12
output: 690

input: What does the data say about its IC50? Entry: CN(C)c1ccc(Cc2ccc3ccccc3c2O)cc1
output: 140

input: Give the measured IC50 of CC(C)(C)c1ccc2ccccc2c1O .
output: 180

input: Sample Oc1c(Cc2ccco2)ccc2ccccc12 — what was its IC50?
output: 37

input: Endpoint output: IC50 of CSc1ccc(Cc2ccc3ccccc3c2O)cc1 . Value?
output: 48

input: # get_value(readout='IC50', item= Cn1cccc1Cc1ccc2ccccc2c1O )
output: 140

input: I'd like to know its IC50. The compound in question is CC(=O)c1cc(Cc2ccccc2)c(O)c2ccccc12
output: 510

input: What measured IC50 goes with OCCOc1c(Cc2ccccc2)ccc2ccccc12 ?
output: 40000

input: # query: IC50 of entry COc1cccc2c(O)c(Cc3ccccc3)ccc12
output: 100

input: Reported IC50 for Cl.Nc1c(Cc2ccccc2)ccc2ccccc12 : what is it?
output: 9100

input: What does the data say about its IC50? Entry: Oc1c(Cc2ccncc2)ccc2ccccc12
output: 140

input: Given the entry Oc1c(Cc2ccccc2)cccc1Cc1ccccc1 , report its measured IC50.
output: 8800

input: Which measured IC50 value corresponds to COc1ccc2ccc(Cc3ccccc3)c(O)c2c1 ?
output: 3500

input: Data request, read-out IC50, for O=C(c1ccccc1)c1ccc2ccccc2c1O
output: 20000

input: Need IC50, item O=C(O)CCCCc1ccc2ccccc2c1O
output: 4200

input: GET /values?readout=IC50&item= Oc1ccc(Cc2ccccc2)c2ccccc12
output: 820

input: Param item = Oc1c(Cc2cccc(C(F)(F)F)c2)ccc2ccccc12 ; retrieve measured IC50.
output: 270

input: May I ask what IC50 has been recorded for OC(c1ccccc1)c1ccc2ccccc2c1 (stereo not given) ?
output: 40000

input: So what's the measured IC50 for this one? Oc1c(Cc2ccc(Br)cc2)ccc2ccccc12
output: 68

input: # get_value(readout='IC50', item= Oc1c(Cc2ccc3c(c2)OCO3)ccc2ccccc12 )
output: 40

input: Give the measured IC50 of Oc1c(Cc2ccc(F)cc2)ccc2ccccc12 .
output: 130

input: Please report the recorded IC50 for Oc1c(Cc2cccc(Oc3ccccc3)c2)ccc2ccccc12 .
output: 83

input: Name the reported IC50 value associated with the compound CCOC(=O)CCc1ccc2ccccc2c1O
output: 58

input: Which measured IC50 value corresponds to Oc1c(Cc2ccc(OCc3ccccc3)cc2)ccc2ccccc12 ?
output: 72

input: Suppose we examine the compound Oc1ccccc1Cc1ccccc1 ; what IC50 value has been reported?
output: 63000

input: Tell me the measured IC50 of Cn1ccnc1Cc1ccc2ccccc2c1O , please.
output: 3500

input: Fill in: IC50 of Oc1c(Cc2cccc(Cl)c2)ccc2ccccc12 is ___
output: 52

input: Field request: IC50 | item: O=C(c1ccccc1)c1cc(Cc2ccccc2)c(O)c2ccccc12
output: 54

input: Requested field: IC50. Item: CS(=O)(=O)c1cc(Cc2ccccc2)c(O)c2ccccc12
output: 40000

input: Tell me the measured IC50 of Cc1ccc(Cc2ccc3ccccc3c2O)cc1 , please.
output: 24

input: Fill in: IC50 of NS(=O)(=O)c1cc(Cc2ccccc2)c(O)c2ccccc12 is ___
output: 9400

input: Find the recorded IC50 belonging to CCOC(=O)CCCCc1ccc2ccccc2c1O and report it.
output: 11

input: // query IC50 value for entry CCOC(=O)c1ccc2ccccc2c1O
output: 25000

input: Need IC50, item COc1cccc(Cc2ccc3ccccc3c2O)c1
output: 110

input: Form field: reported IC50 of Oc1cc2ccccc2cc1Cc1ccccc1
output: 7200

input: # IC50 lookup, item Cc1cc(C)c2ccc(Cc3ccccc3)c(O)c2c1
output: 62

input: # query: IC50 of entry C=CCc1ccc2ccccc2c1O
output: 56

input: Any idea what its IC50 is? The compound is OCc1ccccc1/C=C/Cc1cc2c(cc1O)CCO2
output: 250

input: Report IC50 for Oc1c(Cc2ccc(Cl)c(Cl)c2)ccc2ccccc12 please.
output: 180

input: // query IC50 value for entry Oc1c(CCc2ccccc2)ccc2ccccc12
output: 140

input: // returns reported IC50 for input Oc1c(Cc2ccc(Cl)cc2)ccc2ccccc12
output: 39

input: Would you mind telling me what IC50 value was observed for Oc1c(Cc2ccc3ccccc3c2)ccc2ccccc12 ?
output: 58

input: Fill blank: measured IC50 of the compound CCOC(=O)CCC/C(=N\O)c1ccc2ccccc2c1O is ____.
output: 2700

input: For CC(c1ccccc1)c1ccc2ccccc2c1O (stereo not given) , what is its reported IC50?
output: 70

input: Record request: IC50 value, item COc1cc(Cc2ccccc2)c(O)c2ccccc12
output: 31

input: Need IC50, item Oc1c(Cc2ccccn2)ccc2ccccc12
output: 390

input: # lookup: IC50 of O=C1C=C(Cc2ccccc2)C(=O)c2ccccc21
output: 290

input: Entry under review: COc1ccc(Cc2ccc3ccccc3c2O)cc1OC . Reported IC50?
output: 51

input: I have this compound here, COc1ccc2c(O)c(Cc3ccccc3)ccc2c1 , and I need its recorded IC50.
output: 1900
